test system: AKT2 (human), P31751 [S474D]; test: radiometric filter-binding kinase assay; details: compound 100.0 µM; ATP 50 µM
Sequence (P31751 whole entry S474D, looked up): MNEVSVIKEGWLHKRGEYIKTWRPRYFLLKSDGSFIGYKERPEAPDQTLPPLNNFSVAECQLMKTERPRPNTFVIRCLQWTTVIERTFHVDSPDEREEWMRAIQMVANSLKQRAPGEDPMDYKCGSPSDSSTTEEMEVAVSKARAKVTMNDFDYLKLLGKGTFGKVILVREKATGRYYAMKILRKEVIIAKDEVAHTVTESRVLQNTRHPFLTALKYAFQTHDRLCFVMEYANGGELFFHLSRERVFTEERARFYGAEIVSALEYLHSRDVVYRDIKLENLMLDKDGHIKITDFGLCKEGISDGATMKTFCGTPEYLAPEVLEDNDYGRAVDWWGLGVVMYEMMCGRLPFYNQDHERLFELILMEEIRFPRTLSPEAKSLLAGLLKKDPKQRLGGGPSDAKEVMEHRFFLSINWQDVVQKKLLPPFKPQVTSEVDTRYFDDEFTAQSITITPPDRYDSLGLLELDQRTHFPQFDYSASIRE
Readout Label: inhibition
Please format your answer as a value with the unit trailing.

Study these solved cases before continuing.
>  <Chemical Smiles>
COc1ccc(-c2cc3c(=O)[nH]cnc3s2)cc1OC

>  <inhibition>
47%

$$$$
>  <Chemical Smiles>
CC(=O)Nc1nc2cnc(-c3c(C)cccc3C)cn2n1

>  <inhibition>
43%

$$$$
>  <Chemical Smiles>
O=c1cc(-c2ccccc2F)nc2[nH]ccn12

>  <inhibition>
16%

$$$$

Query string: Can you share its inhibition? I mean this molecule: CC(C)(C)Nc1c(C2CC2)nc2[nH]cnn12
Result string: 31%

Query string: What do we get for CC(=O)Nc1nc2cnc(-c3ccccc3)cn2n1 ?
Result string: 22%

Query string: What do we get for O=C(Nc1cnc2[nH]cnn2c1=O)c1ccccc1 ?
Result string: 15%

Query string: What do we get for Nc1cnc2c(-c3c(F)cccc3F)cccn2c1=O ?
Result string: 68%

Query string: What do we get for O=C(c1cccc(-c2cc3c(=O)[nH]cnc3s2)c1)N1CCOCC1 ?
Result string: 47%

----------
target: TTK (human) (UniProt P33981); experiment: radiometric filter-binding kinase assay; conditions: compound 100.0 µM; ATP 20 µM
Sequence (P33981 whole entry, looked up): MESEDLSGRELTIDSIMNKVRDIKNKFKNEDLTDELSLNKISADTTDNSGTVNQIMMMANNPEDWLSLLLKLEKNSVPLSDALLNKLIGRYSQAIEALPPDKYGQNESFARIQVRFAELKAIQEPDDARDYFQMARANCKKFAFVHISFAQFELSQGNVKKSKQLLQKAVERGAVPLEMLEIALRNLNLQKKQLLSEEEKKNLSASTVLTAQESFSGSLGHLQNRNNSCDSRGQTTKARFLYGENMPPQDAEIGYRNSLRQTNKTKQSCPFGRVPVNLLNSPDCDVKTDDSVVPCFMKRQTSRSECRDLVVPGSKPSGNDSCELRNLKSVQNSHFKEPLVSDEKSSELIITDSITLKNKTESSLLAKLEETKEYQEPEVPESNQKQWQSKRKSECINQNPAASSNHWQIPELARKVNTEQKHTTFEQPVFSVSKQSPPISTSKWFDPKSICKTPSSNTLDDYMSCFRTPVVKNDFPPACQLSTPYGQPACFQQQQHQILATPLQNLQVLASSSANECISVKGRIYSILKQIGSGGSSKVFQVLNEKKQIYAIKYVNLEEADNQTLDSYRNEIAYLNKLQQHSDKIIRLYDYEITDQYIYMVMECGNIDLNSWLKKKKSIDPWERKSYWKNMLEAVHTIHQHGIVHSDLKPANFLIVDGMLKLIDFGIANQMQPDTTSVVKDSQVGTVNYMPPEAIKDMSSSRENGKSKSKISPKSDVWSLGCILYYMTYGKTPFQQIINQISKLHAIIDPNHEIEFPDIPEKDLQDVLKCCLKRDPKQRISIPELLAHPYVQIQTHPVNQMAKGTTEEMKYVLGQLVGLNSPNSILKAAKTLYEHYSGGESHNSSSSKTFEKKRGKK
Parameter threshold = 7%. Response is Yes when inhibition meets or exceeds it, else No.

Consider the worked cases shown below.
>  <Compound>
O=C(Nc1cnc2[nH]cnn2c1=O)c1ccccc1

>  <Classification>
No

$$$$
>  <Compound>
CC(=O)Nc1nc2cnc(-c3ccccc3)cn2n1

>  <Classification>
No

$$$$
>  <Compound>
O=C(c1cccc(-c2cc3c(=O)[nH]cnc3s2)c1)N1CCOCC1

>  <Classification>
No

$$$$
>  <Compound>
O=c1c(NC(=S)NCc2ccccc2)cnc2[nH]ccn12

>  <Classification>
No

$$$$
>  <Compound>
CC(=O)Nc1nc2cnc(-c3c(C)cccc3C)cn2n1

>  <Classification>
No

$$$$
>  <Compound>
O=c1cc(-c2ccccc2F)nc2[nH]ccn12

>  <Classification>
Yes

$$$$

Query string: Quick check: does COc1ccc(-c2cc3c(=O)[nH]cnc3s2)cc1OC have inhibition greater than or equal to 7%?
Result string: Yes

Query string: What do we get for COc1ccc(NC(=S)Nc2cnc3[nH]cnn3c2=O)cn1 ?
Result string: No

Query string: What do we get for CC(C)(C)Nc1c(C2CC2)nc2[nH]cnn12 ?
Result string: Yes

Query string: What do we get for CC1CN(c2nc3ccccn3c(=O)c2N)CC(C)O1 (stereo not given) ?
Result string: No

Query string: What do we get for O=C(Nc1cnc2[nH]ccn2c1=O)c1ccccc1 ?
Result string: No

Query string: What do we get for Cc1cccc(C)c1-c1cn2nc(N)nc2cn1 ?
Result string: Yes

Query string: What do we get for Nc1nc2cnc(-c3ccccc3)cn2n1 ?
Result string: Yes

Query string: What do we get for Nc1cnc2c(-c3c(F)cccc3F)cccn2c1=O ?
Result string: Yes

----------
target: MAPK10 (human); experiment: radiometric filter-binding kinase assay; settings: compound 100.0 µM; ATP 20 µM
Parameter threshold = 9%. Response is Y when inhibition meets or exceeds it, else N.

Consider the worked cases shown below.
>  <Chemical Smiles>
CC(C)(C)Nc1c(C2CC2)nc2[nH]cnn12

>  <Classification>
N

$$$$
>  <Chemical Smiles>
O=C(Nc1cnc2[nH]cnn2c1=O)c1ccccc1

>  <Classification>
N

$$$$
>  <Chemical Smiles>
Cc1cccc(C)c1-c1cn2nc(N)nc2cn1

>  <Classification>
Y

$$$$
>  <Chemical Smiles>
Nc1nc2cnc(-c3ccccc3)cn2n1

>  <Classification>
Y

$$$$

Query string: Quick check: does CC(C)(C)Nc1c(COCc2ccccc2)nc2[nH]cnn12 have inhibition greater than or equal to 9%?
Result string: N

Query string: What do we get for O=C(Nc1cnc2[nH]ccn2c1=O)c1ccccc1 ?
Result string: N

Query string: What do we get for Nc1cnc2c(-c3c(F)cccc3F)cccn2c1=O ?
Result string: Y

Query string: What do we get for CC(=O)Nc1nc2cnc(-c3c(C)cccc3C)cn2n1 ?
Result string: N

Query string: What do we get for CC(=O)Nc1nc2cnc(-c3ccccc3)cn2n1 ?
Result string: Y

Query string: What do we get for O=c1cc(-c2ccccc2F)nc2[nH]ccn12 ?
Result string: N

Query string: What do we get for COc1ccc(-c2cc3c(=O)[nH]cnc3s2)cc1OC ?
Result string: N

Query string: What do we get for COc1ccc(NC(=S)Nc2cnc3[nH]cnn3c2=O)cn1 ?
Result string: N

Query string: What do we get for O=c1c(NC(=S)NCc2ccccc2)cnc2[nH]ccn12 ?
Result string: N

Query string: What do we get for O=C(c1cccc(-c2cc3c(=O)[nH]cnc3s2)c1)N1CCOCC1 ?
Result string: N
